- protocol_description: 1st Phase I study, rising single i.v. dose, healthy male volunteers
- Format: in vivo, human
- run_conditions: male, human, plasma, iv; 200 mg single i.v. infusion, healthy volunteers, mean ± SE; read-out: Vss
- Experimental: Pharmacokinetic parameters were estimated by a non-compartmental method using WinNonlin Professional version 3.2 (Pharsight Corp., Mountain View, Calif.). […] The terminal slope (X) was estimated by linear regression through the last time points and used to calculate the terminal half-life (t1/2) from the following equation: t1/2=0.693/λ The area under the curve from time of dosing through the last time point (AUCz) was calculated by the linear trapezoid method. […]
observable: Vd
// unit must come after the numeric part

Name the reported Vd value associated with the compound `CCCCCCC(C)(C)c1cc(O)c2c(c1)OC(C)(C)[C@H]1CC=C(CO)C[C@H]21`
5 L/kg

----------
- protocol_description: single dose toxicity and pharmacokinetics, rat
- Assay type: in vivo, Sprague Dawley rats
- run_conditions: Sprague Dawley, plasma, iv; rat female, single i.v. 50 mg/kg (NOAEL)
- Experimental: The pharmacokinetics of dexanabinol of high enantiomeric purity formulated in CREMOPHOR EL®:ethanol as described in Example 4 were investigated in rats, rabbits, and monkeys following intravenous administration of single doses, and 14 and 28 days of repeated dosing. Human pharmacokinetics was studied during Phase I and Phase II clinical studies. […] The limit of quantitation of the assay is 0.1 ng/ml. […]
observable: AUC(0-inf)

Name the reported AUC(0-inf) value associated with the compound `CCCCCCC(C)(C)c1cc(O)c2c(c1)OC(C)(C)[C@H]1CC=C(CO)C[C@H]21`
173 µg·h/mL

----------
- protocol_description: Phase II study, single i.v. dose in patients with severe head trauma
- Type: in vivo, human
- run_conditions: human, plasma, iv; 48 mg single i.v. infusion (n = 10), severe TBI patients, mean ± SE
observable: AUC(0-inf) (ng·h/mL)
Give the quantity in ng·h/mL, number only.

Name the reported AUC(0-inf) value associated with the compound `CCCCCCC(C)(C)c1cc(O)c2c(c1)OC(C)(C)[C@H]1CC=C(CO)C[C@H]21`
572

----------
- protocol_description: 1st Phase I study, rising single i.v. dose, healthy male volunteers
- Type: in vivo, human
- run_conditions: male, human, plasma, iv; 100 mg single i.v. infusion, healthy volunteers, mean ± SE; read-out: Vss
observable: Vd (L/kg)
Give the quantity in L/kg, number only.

Name the reported Vd value associated with the compound `CCCCCCC(C)(C)c1cc(O)c2c(c1)OC(C)(C)[C@H]1CC=C(CO)C[C@H]21`
3.4

----------
- protocol_description: 1st Phase I study, rising single i.v. dose, healthy male volunteers
- Format: in vivo, human
- run_conditions: male, human, plasma, iv, 200 mg, 200 mg single i.v. infusion, healthy volunteers, mean ± SE; read-out: t1/2 (converted)
observable: half-life (h)
Give the quantity in h, number only.

Name the reported half-life value associated with the compound CCCCCCC(C)(C)c1cc(O)c2c(c1)OC(C)(C)[C@H]1CC=C(CO)C[C@H]21 [dexanabinol]
8.2

----------
- protocol_description: 14-day multiple dose pharmacokinetic/toxicity study, rabbit
- Format: in vivo, rabbits
- run_conditions: plasma, iv; rabbit female, 25 mg/kg i.v. daily, final dose Day 14 (NOAEL)
observable: Cmax (µg/mL)
Give the quantity in µg/mL, number only.

Name the reported Cmax value associated with the compound `CCCCCCC(C)(C)c1cc(O)c2c(c1)OC(C)(C)[C@H]1CC=C(CO)C[C@H]21`
115

----------
- protocol_description: 28-day multiple dose study, monkey
- Assay type: in vivo, monkeys
- run_conditions: monkey, in vivo, iv; 28-day study i.v.
observable: NOAEL at 28 days (mg/kg/day)
Give the quantity in mg/kg/day, number only.

Name the reported NOAEL at 28 days value associated with the molecule `CCCCCCC(C)(C)c1cc(O)c2c(c1)OC(C)(C)[C@H]1CC=C(CO)C[C@H]21`
25

----------
- protocol_description: single dose toxicity and pharmacokinetics, rabbit
- Type: in vivo, New Zealand White rabbits
- run_conditions: both sexes, New Zealand White, plasma, iv; rabbit male & female, single i.v. 25 mg/kg (NOAEL)
observable: AUC(0-inf)
// unit must come after the numeric part

Name the reported AUC(0-inf) value associated with the compound `CCCCCCC(C)(C)c1cc(O)c2c(c1)OC(C)(C)[C@H]1CC=C(CO)C[C@H]21`
18200 ng·h/mL

----------
- protocol_description: single dose toxicity and pharmacokinetics, rat
- Format: in vivo, Sprague Dawley rats
- run_conditions: Sprague Dawley, plasma, iv; rat male, single i.v. 50 mg/kg (NOAEL)
observable: Cmax (µg/mL)
Give the quantity in µg/mL, number only.

Name the reported Cmax value associated with the compound `CCCCCCC(C)(C)c1cc(O)c2c(c1)OC(C)(C)[C@H]1CC=C(CO)C[C@H]21`
102

----------
- protocol_description: 2nd Phase I study, single i.v. dose 48 or 150 mg, healthy male volunteers
- Type: in vivo, human
- run_conditions: male, human, plasma, iv; 150 mg single i.v. infusion, healthy volunteers, mean ± SE; read-out: Vss
observable: Vd (L/kg)
Give the quantity in L/kg, number only.

Name the reported Vd value associated with the compound `CCCCCCC(C)(C)c1cc(O)c2c(c1)OC(C)(C)[C@H]1CC=C(CO)C[C@H]21`
4.5

----------
- protocol_description: 1st Phase I study, rising single i.v. dose, healthy male volunteers
- Type: in vivo, human
- run_conditions: male, human, plasma, iv; 100 mg single i.v. infusion, healthy volunteers, mean ± SE
observable: MRT (h)
Give the quantity in h, number only.

Name the reported MRT value associated with the compound `CCCCCCC(C)(C)c1cc(O)c2c(c1)OC(C)(C)[C@H]1CC=C(CO)C[C@H]21`
3.1

----------
- protocol_description: 14-day multiple dose pharmacokinetic/toxicity study, rabbit
- Assay type: in vivo, rabbits
- run_conditions: rabbit, in vivo, iv; 14-day multiple dose i.v.
- Method: The pharmacokinetics of dexanabinol of high enantiomeric purity formulated in CREMOPHOR EL®:ethanol as described in Example 4 were investigated in rats, rabbits, and monkeys following intravenous administration of single doses, and 14 and 28 days of repeated dosing. Human pharmacokinetics was studied during Phase I and Phase II clinical studies. […] The limit of quantitation of the assay is 0.1 ng/ml. […]
observable: NOAEL at 14 days (mg/kg/day)
Give the quantity in mg/kg/day, number only.

Name the reported NOAEL at 14 days value associated with the compound `CCCCCCC(C)(C)c1cc(O)c2c(c1)OC(C)(C)[C@H]1CC=C(CO)C[C@H]21`
25

----------
- protocol_description: single dose toxicity and pharmacokinetics, rat
- Assay type: in vivo, Sprague Dawley rats
- run_conditions: Sprague Dawley, plasma, iv; rat male, single i.v. 50 mg/kg (NOAEL)
observable: AUC(0-inf) (ng·h/mL)
Give the quantity in ng·h/mL, number only.

Name the reported AUC(0-inf) value associated with the compound `CCCCCCC(C)(C)c1cc(O)c2c(c1)OC(C)(C)[C@H]1CC=C(CO)C[C@H]21`
67500

----------
- protocol_description: single dose toxicity and pharmacokinetics, monkey
- Assay type: in vivo, Cynomolgus monkeys
- run_conditions: cynomolgus monkey, plasma, iv; monkey female, single i.v. 50 mg/kg (NOAEL)
observable: AUC(0-inf) (µg·h/mL)
Give the quantity in µg·h/mL, number only.

Name the reported AUC(0-inf) value associated with the molecule `CCCCCCC(C)(C)c1cc(O)c2c(c1)OC(C)(C)[C@H]1CC=C(CO)C[C@H]21`
136

----------
- protocol_description: Phase II study, single i.v. dose in patients with severe head trauma
- Type: in vivo, human
- run_conditions: human, plasma, iv; 150 mg single i.v. infusion (n = 20), severe TBI patients, mean ± SE, up to 24 hr
observable: AUC (ng·h/mL)
Give the quantity in ng·h/mL, number only.

Name the reported AUC value associated with the molecule `CCCCCCC(C)(C)c1cc(O)c2c(c1)OC(C)(C)[C@H]1CC=C(CO)C[C@H]21`
1450

----------
- protocol_description: 14-day multiple dose pharmacokinetic/toxicity study, rat
- Type: in vivo, rats
- run_conditions: plasma, iv; rat male, 15 mg/kg i.v. daily, final dose Day 14 (NOAEL)
observable: Cmax (ng/mL)
Give the quantity in ng/mL, number only.

Name the reported Cmax value associated with the compound `CCCCCCC(C)(C)c1cc(O)c2c(c1)OC(C)(C)[C@H]1CC=C(CO)C[C@H]21`
30200

----------
- protocol_description: 2nd Phase I study, single i.v. dose 48 or 150 mg, healthy male volunteers
- Format: in vivo, human
- run_conditions: male, human, plasma, iv; 48 mg single i.v. infusion, healthy volunteers, mean ± SE, up to 96 hr
observable: AUC(0-inf) (ng·h/mL)
Give the quantity in ng·h/mL, number only.

Name the reported AUC(0-inf) value associated with the compound `CCCCCCC(C)(C)c1cc(O)c2c(c1)OC(C)(C)[C@H]1CC=C(CO)C[C@H]21`
824
